# EC50 (read off the curve) listing for each entry below
target: human PDL1 on cells (human, UniProt Q9NZQ7 19-290); experiment: cell-based or functional assay
Sequence (Q9NZQ7 19-290): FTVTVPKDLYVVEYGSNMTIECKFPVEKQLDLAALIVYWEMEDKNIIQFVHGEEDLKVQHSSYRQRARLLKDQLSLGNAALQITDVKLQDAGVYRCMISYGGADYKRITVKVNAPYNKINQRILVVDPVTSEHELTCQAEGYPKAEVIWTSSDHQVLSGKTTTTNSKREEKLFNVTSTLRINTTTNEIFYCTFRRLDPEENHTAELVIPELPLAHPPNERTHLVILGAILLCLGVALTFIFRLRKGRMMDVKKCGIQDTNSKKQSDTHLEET

* Anti-PDL1/SIRPα bispecific antibody ES019-024 (bispecific antibody, not shown: a dimerising Fc or GST) light: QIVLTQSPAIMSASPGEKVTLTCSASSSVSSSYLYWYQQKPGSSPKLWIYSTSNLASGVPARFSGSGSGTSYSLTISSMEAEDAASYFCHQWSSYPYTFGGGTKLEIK heavy (part 1 of 2): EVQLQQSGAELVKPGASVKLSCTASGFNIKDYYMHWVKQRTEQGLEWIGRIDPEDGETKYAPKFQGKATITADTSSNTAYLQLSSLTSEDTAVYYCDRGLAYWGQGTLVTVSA heavy (part 2 of 2): EVQVVESGGGLVQSGGSLKLSCAGSGFTESAGFMVWHRQVPGKERELVALIATPSGSTNYADSVKGRFTISRDNGKNTVYLQMNSLKPEDTAVYYCNIRGYWGQGTLVTVSS | ~2 nM
* Anti-PDL1 antibody C71 (antibody, V domains shown, Heavy chain antibody (single domain variable region); also called Anti-PDL1, C71) VH: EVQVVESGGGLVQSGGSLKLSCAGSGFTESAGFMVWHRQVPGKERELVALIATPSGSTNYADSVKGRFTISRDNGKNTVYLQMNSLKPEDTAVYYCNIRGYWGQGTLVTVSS | ~2 nM
* Anti-PDL1/SIRPα bispecific antibody ES019-020 (bispecific antibody, not shown: small tags and cut ends; a dimerising Fc or GST) light (part 1 of 2): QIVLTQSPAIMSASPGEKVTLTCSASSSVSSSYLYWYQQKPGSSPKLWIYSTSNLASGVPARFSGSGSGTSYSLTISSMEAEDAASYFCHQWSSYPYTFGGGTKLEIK light (part 2 of 2): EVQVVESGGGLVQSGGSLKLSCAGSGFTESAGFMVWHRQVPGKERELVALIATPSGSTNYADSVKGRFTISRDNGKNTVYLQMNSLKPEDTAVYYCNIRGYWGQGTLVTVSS heavy: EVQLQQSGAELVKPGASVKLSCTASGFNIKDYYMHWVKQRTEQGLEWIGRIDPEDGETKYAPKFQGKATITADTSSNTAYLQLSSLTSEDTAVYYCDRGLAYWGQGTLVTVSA | ~3 nM

Prompt line: Which EC50 (read off the curve) is listed for Anti-PDL1/SIRPα bispecific antibody ES019-026 (bispecific antibody, not shown: small tags and cut ends; a dimerising Fc or GST) light (part 1 of 2): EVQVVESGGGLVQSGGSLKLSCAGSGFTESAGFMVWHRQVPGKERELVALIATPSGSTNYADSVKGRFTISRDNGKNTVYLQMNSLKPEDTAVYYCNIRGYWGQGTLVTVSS light (part 2 of 2): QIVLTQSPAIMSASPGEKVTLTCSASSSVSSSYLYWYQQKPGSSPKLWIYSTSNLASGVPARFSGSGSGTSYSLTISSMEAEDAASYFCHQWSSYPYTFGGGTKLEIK heavy: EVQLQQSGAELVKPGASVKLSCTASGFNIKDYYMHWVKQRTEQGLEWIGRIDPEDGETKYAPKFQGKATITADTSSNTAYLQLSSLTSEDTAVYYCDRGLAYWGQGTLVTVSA ?
Response line: ~1 nM
